Sourced from PubChem BioAssay

- experiment-summary: blockers of RIG-like receptor reporter activation – cell-based, Sendai virus stimulus, luciferase, 10K MLSCN set, TLR/RLR signaling modifier project, primary screen (AID 602276);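 further: firefly luciferase from ISG56 promoter only with Renilla not read in this screen; 0% = Sendai virus plus DMSO and 100% = medium plus DMSO without virus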
- condition: HEK293 RL24 IRF3 luciferase reporter, at 10 µM, stronger effect = higher value

compound | inhibition, %
O=C(CCCCCn1c(=O)[nH]c2ccsc2c1=O)N1CCCCC1 | 18.4
CCOCCn1cnc2sc(C(=O)NCC(=O)OCC)c(C)c2c1=O | -2.53
O=C(Nc1ccc2c(c1)OCO2)c1ccc(Br)c(S(=O)(=O)N2CCCC2)c1 | -20.9
O=C(c1ccco1)N1CCN(c2c(-c3ccccc3)c3cc(Cl)ccc3[nH]c2=O)CC1 | 24.2
CCOC(=O)C1=C(C)Nc2ncnn2C1c1ccccc1F (configuration not stated) | -5.35
CN(C)CCCN1c2ccccc2Sc2ccccc21 | 6.01
CN(c1ccccc1)S(=O)(=O)c1cc(C(=O)N2CCN(c3ccccn3)CC2)ccc1Cl | 15.7
CC(C)=CCCC(C)NC(=O)NC1CCCCC1 (configuration not stated) | -0.0287
O=C(O)c1c[nH]c2ccc(S(=O)(=O)N3CCN(c4ccc(F)cc4)CC3)cc2c1=O | 1.85
CC(C)Cn1cc(C(=O)NCC2CCCO2)c2c3ccccc3n(C)c2c1=O (configuration not stated) | 13.7
COc1ccccc1NC1=NC2(CCCC2)N=C(N)N1 | 7.65
COC(=O)c1ccc(COc2ncnc3c(Cl)cc(Cl)cc23)o1 | 2.59
CN(C)CCCC1(c2ccc(F)cc2)OCc2cc(C#N)ccc21 (configuration not stated) | 1.82
COCCn1c(=O)[nH]c2cc(C(=O)NCc3cccnc3)ccc2c1=O | 10.8
COc1cc(C(=O)Nc2cc(Cl)ccc2C)c(-n2cnnn2)cc1OC | 13.5
C=CCc1cc(C(=O)N2CCCCC2)ccc1O | 5.94
O=C(NCc1cccnc1)c1ccccc1Br | 15.2
COc1ccc(S(=O)(=O)NC(CC(=O)NCc2ccco2)c2ccco2)cc1 (configuration not stated) | 19.3
COC(=O)c1onc(C(=O)c2ccccc2)c1C(=O)OC | 16.3
O=C(NCc1ccccn1)c1ccc2nc(-c3ccco3)c(-c3ccco3)nc2c1 | 10.9
Nc1ncnc2nc(SCCN3CCCCC3)[nH]c12 | 17.8
O=C(NCc1ccccc1)N1CCn2c(nc3ccccc32)C1 | -0.797
CCOc1ccc(C(CC(=O)O)NC(=O)c2ccco2)cc1OC (configuration not stated) | 9.42
CC1CCCC(NC(=O)CN2CCN(Cc3ccc(Cl)cc3)C2=O)C1C (configuration not stated) | 14.7
CN(Cc1ccccc1)Cc1nc2c([nH]1)c(=O)[nH]c(=O)n2C | 7.51
Cc1ccc(S(=O)(=O)N2CCC(C(=O)N[C@@H](Cc3ccccc3)C(=O)O)CC2)cc1 | -10.7
Cn1c(=O)cc(SCC(=O)NCC2CCCO2)c2ccc(Cl)cc21 (configuration not stated) | 10.3
O=C(Cc1ccc(Br)cc1)N1CCCCCC1 | -33.9
O=C(NCCCN1CCCC1=O)c1cncc(Br)c1 | 13.1
Cc1c(C(=O)O)oc2ccc(S(=O)(=O)NCc3ccccc3)cc12 | -0.0664
Cc1cnnc2c1-c1nonc1CC2 | 17.8
Cc1ccc(C(=O)CCC2CCCC2=O)cc1 (configuration not stated) | -20.4
CCOc1ccc(-n2c(=O)cc(N3CCN(c4ccccc4)CC3)[nH]c2=O)cc1 | 12.1
O=C(O)c1cc2c([nH]c1=O)CCCC2 | 13.7
CCOC(=O)c1[nH]nc(-c2c(O)cc(C)cc2O)c1-c1csc(C)n1 | -7.71
COc1ccc(OCc2nc(N)nc(Nc3cccc(C)c3C)n2)cc1 | 4.49
O=C(CSc1nnc(Cn2cnc3ccccc32)o1)c1ccccc1 | 7.52
Cc1nc2ccc(NC(=O)N3CCOCC3)cc2s1 | 10.7
Cc1nn(-c2ccccc2)c(Cl)c1C1C(C#N)=C(N)OC2=C1C(=O)CC(C)(C)C2 (configuration not stated) | 6.31
CCOC(=O)c1cnc(-n2nc(C)cc2C)nc1Nc1cccc(C(C)=O)c1 | -13.6
O=S(=O)(c1ccccc1)N1CCSC1c1ccco1 (configuration not stated) | -30.7
CN(C)c1ccc(NC(=O)CSCc2nc3c(nnn3Cc3ccc(F)cc3)c(=O)[nH]2)cc1 | 10.7
CCn1c(Cc2ccc(OC)cc2)nnc1SCC(=O)Nc1cccc(C(=O)OC)c1 | 12.3
Cn1cnnc1SCC(=O)NCc1cccc(C(F)(F)F)c1 | 4.51
O=C(CSc1nnc(-c2cccs2)o1)N1CCOCC1 | -8.48
CCc1cc(-c2[nH]ncc2-c2ccc3c(c2)OCO3)c(O)cc1O | 14
O=C(O)c1ccccc1C(=O)Nc1ccccc1 | 5.22
